Assay: budding yeast growth changes without added modifier – OD600, strain BY4716, 24 h, basal condition, primary screen (AID 1173)
Settings: S. cerevisiae BY4716 growth, OD600, 24 h; higher = more signal, called active from +8 up or from −8 down
value kind: z-score
Give bare numbers.

# annotated cases, reported z-score shown
molecule: C=C(C)[C@@H]1CC=C(C(O)C2C=CC3C(=O)N(C)C(=O)C3N2Nc2ccc([N+](=O)[O-])cc2[N+](=O)[O-])CC1 (some centres not stated)
z-score: 0.522

molecule: COc1cc(C(O)C2C=CC3C(=O)N(c4ccccc4)C(=O)C3N2Nc2ccccc2F)cc(OC)c1OC (configuration not stated)
z-score: 0.886

molecule: CN1C(=O)C2C(C3CC3)C=C3CN(Cc4cccc(Cl)c4)[C@@H]([C@@H](O)Cc4ccccc4)C3C2C1=O (some centres not stated)
z-score: -1.83

molecule: C=C(C)[C@@H]1CC=C(C(O)C2C=CC3C(=O)N(c4ccccc4)C(=O)C3N2Nc2ccc([N+](=O)[O-])cc2)CC1 (some centres not stated)
z-score: 0.139

For every record below, what is its z-score?
1. NC(=O)NCC#Cc1ccc2c(c1)[C@]1(C(=O)N2)[C@H](c2ccc(OCCO)cc2)N2[C@H](c3ccccc3)[C@H](c3ccccc3)OC(=O)[C@H]2[C@@H]1C(=O)NC[C@H](O)c1ccccc1
2. C=C(COC)C(=O)CC[C@H](OC(=O)c1cccnc1)c1ccc(OCCO)cc1
3. O=C(NC1CC1)[C@@H]1c2ccccc2C(=O)N(Cc2cc(C(F)(F)F)cc(C(F)(F)F)c2)[C@H]1c1ccc(CO)cc1

[1.63, -3.4, -0.313]

----------
Target: Calmodulin-1 (Homo sapiens)
Assay: small molecules binding calmodulin-1 with EGTA – biochemical, small-molecule microarray, Cy5-labelled CALM1, profiling panel (AID 1111);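 further: labelled calmodulin applied in Tris saline Tween buffer holding calcium plus EGTA and DTT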
Details: Cy5-CALM1 binding fluorescence, higher = more signal
composite z-score of -0.04 or higher: 1. Under -0.04: 0.

Previously resolved entries follow.
compound: COC(=O)[C@@]1(Cc2ccccc2)N=C(c2ccc(OCCCO)cc2)O[C@H]1c1ccccc1CN=[N+]=[N-]
target system: Calmodulin-1 (Homo sapiens)
class label: 0
--
compound: C=CCNC(=O)[C@@H]1[C@H]2C(=O)O[C@H](c3ccccc3)[C@H](c3ccccc3)N2[C@H](c2ccc(OCCO)cc2)[C@@]12C(=O)Nc1ccc(C#CC3(O)CCCCCC3)cc12
target system: Calmodulin-1 (Homo sapiens)
class label: 1
--
compound: C=CCOC(=O)[C@H]1[C@@H]2C(=O)O[C@@H](c3ccccc3)[C@@H](c3ccccc3)N2[C@@H](c2ccc(OCCOC(=O)[C@@H]3C[C@@H]4C(=O)N[C@@H](CCCC[N+](C)(C)C)C(=O)N4[C@@H]3c3ccc(O)cc3)cc2)[C@]12C(=O)Nc1ccc(I)cc12
target system: Calmodulin-1 (Homo sapiens)
class label: 1
--
compound: Cc1ccc(S[C@]2(C(=O)NCCCN(C)C)CC(=O)N(Cc3ccccc3C(F)(F)F)[C@@H]2c2ccc(CO)cc2I)cc1
target system: Calmodulin-1 (Homo sapiens)
class label: 0
--
compound: Cc1ccc(N2C(=O)c3ccccc3[C@](C)(C(=O)NCCCN(C)C)[C@@H]2c2ccc(CO)cc2)nc1
target system: Calmodulin-1 (Homo sapiens)
class label: 0

Next item in the queue.
API: above_or_equal(metric=composite z-score, cutoff=-0.04) for item COC(=O)C1(Cc2ccccc2)C=C2C(=C(C)C(=O)C2C)CN1 (stereo unspecified)
1

----------
Would you mind telling me the reported composite z-score of each entry?
Tested on: Chordin-like protein 2 (CHRDL2)
Assay: compounds binding chordin-like 2 – biochemical, small-molecule microarray, 635 nm fluorescence, primary screen (AID 1126);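 further: printed compound slides probed with Chrdl2 protein at 4 µg/mL for 1 h at 4 C; score merges 667 nm emission intensity with signal to noise over three replicate slides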
Conditions: fluorescence 635 nm, higher = more signal
Answers are plain numbers.

compound: CCN(CC)c1ccc(N2CC=CC34O[C@@H]5C=CCCOC(=O)C5[C@H]3C(=O)N(C(C)CO)[C@@H]4C2=O)cc1 (stereo partly drawn)
target system: Chordin-like protein 2 (CHRDL2)
composite z-score: -0.0271
//
compound: CC(C)c1nc2cc(Br)ccc2c(=O)o1
target system: Chordin-like protein 2 (CHRDL2)
composite z-score: -0.552
//
compound: C=C(CCCC)/C(=C/C[C@H](OC(=O)c1ccncc1)c1ccc(OCCO)cc1)c1cnc2ccccc2c1
target system: Chordin-like protein 2 (CHRDL2)
composite z-score: 1.11
//
compound: COc1cc(C(O)C2C=CC3C(=O)N(c4ccccc4)C(=O)C3N2Nc2ccccc2)cc(OC)c1OC (stereo not drawn)
target system: Chordin-like protein 2 (CHRDL2)
composite z-score: -0.872
//
compound: COc1ccc([Si](C)(C)[C@H]2[C@H](CC(=O)N3Cc4ccccc4C[C@H]3CO)O[C@@]3(C(=O)N(c4ccccc4)c4ccccc43)[C@@H]2C)cc1
target system: Chordin-like protein 2 (CHRDL2)
composite z-score: 1.22

For every record below, what is its composite z-score?
1. COc1ccccc1CN1C(=O)c2ccccc2[C@](Cc2ccccc2I)(C(=O)NCC(C)C)[C@@H]1c1ccc(CO)cc1
2. COCCOC(=O)N1C(=O)[C@@]2(c3cc(C#CCCO)ccc31)[C@H](C(N)=O)[C@H]1C(=O)O[C@H](c3ccccc3)[C@H](c3ccccc3)N1[C@@H]2c1ccccc1OCCO

-0.483
-0.0675

The compound listed as COC(=O)[C@@]1(Cc2ccccc2)[C@H]2c3cc(C(=O)N(C)C)n(Cc4ccc(S(C)(=O)=O)cc4)c3C[C@H]2CN1C(=O)c1ccccc1 has a reported composite z-score of -0.755

----------
Assay: JC-1 mitochondrial signal, unstimulated MM1S myeloma – cell-based, JC-1 fluorescence, 24 h, 100 nL compound, profiling panel (AID 1170); further: test concentration not given here
Conditions: MM1S mitochondrial potential, higher = more signal
value kind: z-score
Numbers only.

# annotated cases, reported z-score shown
compound: CN1C(=O)C2C(C1=O)C1C=C(c3ccc(CO)cc3)C2C(C2CC2)N1C (centres undefined)
z-score: -0.0509

compound: COCCCNC(=O)[C@@H]1c2ccccc2C(=O)N(Cc2ccc(OC(F)(F)F)cc2)[C@H]1c1ccc(CO)cc1
z-score: -0.29

compound: COC(=O)[C@@]1(Cc2ccccc2)N=C(c2ccc(OCCCO)cc2)O[C@H]1c1ccccc1CN=[N+]=[N-]
z-score: -2.9

compound: COc1ccc([Si](C)(C)[C@H]2[C@H](CCO)O[C@@]3(C(=O)N(Cc4ccc(NC(=O)[C@H](C)O)cc4)c4ccccc43)[C@@H]2C)cc1
z-score: -2.31

compound: C=C(COC)/C(=C/C[C@H](OC(C)=O)c1ccccc1OCCO)c1cc(C(=O)OC)ccc1OC
z-score: -1.29

For every record below, what is its z-score?
1. CN(C)CCCNC(=O)[C@@H]1c2ccccc2C(=O)N(Cc2ccccc2C(F)(F)F)[C@H]1c1ccc(CO)cc1
2. CCCCCC1=C2CNC(Cc3ccccc3)(C(=O)OC)C=C2C(C)C1=O (centres undefined)
3. COc1ccc([Si](C)(C)[C@@H]2[C@@H](CC(=O)N3CCC[C@H]3CO)O[C@]3(C(=O)N(Cc4cccc(N5CCCCC5=O)c4)c4ccccc43)[C@H]2C)cc1
4. COC(=O)[C@@]1(Cc2ccc(OC)cc2)[C@H]2c3cc(C(=O)N4CCCC4)n(CCn4cc([N+](=O)[O-])nc4C)c3C[C@H]2CN1C(=O)c1ccccc1

-0.317
-0.32
-1.47
-0.693

----------
Assay: inhibition of PAO1 biofilm formation – strain PAO1, LB-PBS medium, absorbance 600 nm, primary screen (AID 1176); further: test concentration not given here
Conditions: P. aeruginosa PAO1 growth/biofilm, A600, 12 h; higher = more signal
Would you mind telling me the reported z-score of each entry?
One number for each entry.

# annotated cases, reported z-score shown
compound structure: COCCOC(=O)N1C(=O)[C@@]2(c3cc(C#CCC(C(=O)OC)C(=O)OC)ccc31)[C@H](C(=O)Nc1nc3ccccc3s1)[C@H]1C(=O)O[C@H](c3ccccc3)[C@H](c3ccccc3)N1[C@@H]2c1ccc(OCCO)cc1
value kind: z-score
quantitative result: 2.54
//
compound structure: C=CCN1Cc2ccccc2[C@H]2OC(c3ccc(OCCCO)cc3)=N[C@@]2(CCS(=O)(=O)c2ccccc2)C1=O
value kind: z-score
quantitative result: 1.2
//
compound structure: [N-]=[N+]=Nc1ccccc1C[C@@]1(C(=O)NCc2ccccc2)N=C(c2ccc(OCCCO)cc2)O[C@@H]1c1ccccc1N=[N+]=[N-]
value kind: z-score
quantitative result: 0.689

For every record below, what is its z-score?
1. O=C(NCc1ccccc1)[C@@H]1c2ccccc2C(=O)N(Cc2cc(C(F)(F)F)cc(C(F)(F)F)c2)[C@H]1c1ccc(CO)cc1
2. C=CCNC(=O)[C@H]1[C@@H]2C(=O)O[C@@H](c3ccccc3)[C@@H](c3ccccc3)N2[C@@H](c2ccc(OCCO)cc2)[C@]12C(=O)Nc1ccc(C#CC3(O)CCCCCC3)cc12

[0.338, 0.898]

The molecule listed as C[N+](C)(C)CCCC[C@@H]1NC(=O)[C@@H]2C[C@H](C(=O)NCc3ccc(F)cc3)[C@H](c3ccc(O)cc3)N2C1=O has a reported z-score of 0.683

FYI, the data here is from PubChem BioAssay.
